Reference source for all entries: patent US20220073621A1

Answer each item with its documented koff.
- test target: T1, hPD-L1-His (human, UniProt Q9NZQ7 19-238)
- T1 construct: Bought protein; also called hPD-L1-His (manufactured by Edison); not shown: His tag
- T1 sequence (Q9NZQ7 19-238 limits assumed): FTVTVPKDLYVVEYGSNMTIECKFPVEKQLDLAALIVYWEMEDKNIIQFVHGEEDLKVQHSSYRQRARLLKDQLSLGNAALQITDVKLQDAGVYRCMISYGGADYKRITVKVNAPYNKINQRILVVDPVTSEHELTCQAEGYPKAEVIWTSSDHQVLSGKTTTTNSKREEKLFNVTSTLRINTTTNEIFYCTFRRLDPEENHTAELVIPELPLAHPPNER
- procedure summary: SPR (Biacore T200), antibody on Protein A chip, hPD-L1-His injected, 1:1 fit
Write down the numeric answer in s⁻¹ and omit the unit.

Data request: Specify measured koff for 7E4-H1K2-IgG1 (antibody, V domains shown) VH: QVQLVQSGAEVKKPGASVKVSCKASGFKFTDYAIHWVRQAPGQSLEWMGVISIYYGEASYNQKFKDRVTLTVDTSASTAYMELSSLRSEDTAVYYCAREDYYGSSSYFDYWGQGTLVTVSS VL: DNVLTQSPSFLSASVGDRVTMTCSASSSVSSSYLHWYQQKPGASPKPLIHRTSNLASGVPSRFSGSGSGTEFTLTISSLQPEDFATYYCQQWSGYPYTFGGGTKLEIK .
Data returned: 0.0025

Data request: Specify measured koff for 07-6A11-mHvKv-IgG1 (antibody, V domains shown) VH: DVQLVESGGGLVQPGGSRKLSCAASGFTFSSFGMHWVRQAPEKGLEWVAYISSGSNTIYYADTVKGRFTISRDNPKNTLFLQMTSLRSEDTAIYYCTRNGYDGWYAMDYWGQGTSVTVSS VL: QIVLTQSPAIMSASPGEKVTMTCSASSSVSYIHWFQQKSGTSPKRWIYDTSKLASGVPARFSGRGSGTSYSLTISSMEAEDAATYYCQQWSTNPFTFGSGTKLEIK .
Data returned: 0.0009

Data request: Specify measured koff for 3F2-H2K3-IgG1 (antibody, V domains shown) VH: DVQLQESGPGLVKPSETLSLTCTVSGYSITSGYNWHWIRQFPGNGLEWMGYIHHSSITNYNPSLKSRITISRDTSKNQFSLKLSSVTAADTATFYCAREGYDYDWFAYWGQGTLVTVSS VL: DIVLTQSPDTQSVTPKESVTLSCRASQSISNNLHWYQQKSHESPKLLIKYASQSISGIPSRFSGSGSGTDFTLTINSVEAEDFAMYFCQQSKSWPFTFGQGTRLEIK .
Data returned: 0.000881

Data request: Specify measured koff for 6A11-H4K4-IgG1 (antibody, V domains shown) VH: EVQLVESGGGLVQPGGSRRLSCAASGFTFSSFGMHWVRQAPGKGLEWVAYISSGSNTIYYADTVKGRFTISRDNPKNSLYLQMNSLRAEDTAIYYCTRNGYDGWYAMDYWGQGTTVTVSS VL: EIVLTQSPATLSASPGERATLSCSASSSVSYIHWFQQKPGQSPRRWIYDTSKLASGIPARFSGSGSGTSYTLTISSMEPEDAATYYCQQWSTNPFTFGQGTKLEIKR .
Data returned: 0.002

Data request: Specify measured koff for 7E4-H3K3-IgG1 (antibody, V domains shown) VH: QVQLVQSGAEVVKPGASVKISCKGSGFKFTDYAIHWVRQAPGKSLEWMGVISIYYGEASYNQKFKDKVTLTVDTSASTAYMELSSLRSEDTAIYYCAREDYYGSSSYFDYWGQGTLLTVSS VL: ENVLTQSPSFLSASVGDRVTMTCSASSSVSSSYLHWYQQKSGASPKPLIHRTSNLASGVPSRFSGSGSGTEYTLTISSVQPEDFATYYCQQWSGYPYTFGGGTKLEIK .
Data returned: 0.00218
